FYI, the data here is from paper PMC7913621.

- Tested on: cervical squamous cell carcinoma SKG-IIIa
- assay.info: MTT cell viability assay, SKG-IIIa
- Format: cell-based, human
- condition.label: SKGIIIa, 72 h, median (95% Confidence Intervals)
quantity.kind: pIC50
The quantity pIC50 is defined as the negative base-10 logarithm of the molar concentration.

pIC50 for N.N.[Cl][Pt][Cl] [Cisplatin, cisplatin, reference compound] is 5.32

---

Exercise: state measured IC50 for each of the molecules provided.
- Tested on: breast adenocarcinoma MDA-MB-231
- assay.info: MTT cell viability assay, MDA-MB-231
- Type: cell-based, human
- condition.label: Homo sapiens; MDA-MB-231, MTT, 72 h; median (95% Confidence Intervals)
Field: numeric (µM). Do not append units.

For record CN1CC(=O)N(Cc2cc3c(cc2Br)OCO3)[C@@H](Cc2c[nH]c3ccccc23)C1=O [Compound 7b] the listed IC50 is 144

Noted for CN1CC(=O)N(Cc2ccc3c(c2)OCO3)[C@@H](Cc2c[nH]c3ccccc23)C1=O [Compound 6b] : its IC50 reads 128

The reported value for CN1CC(=O)N2[C@H](c3ccc4c(c3)OCO4)c3[nH]c4ccccc4c3C[C@@H]2C1=O [Tadalafil, reference compound] in terms of IC50 is 87.6
